Recorded values, source patent US10428080B2.

Entries annotated with measured pIC50
molecular target: TBK1 (Homo sapiens, UniProt Q9UHD2); experiment: TBK Biochemical Assay; details: read-out: TBK1 IC50
Sequence (Q9UHD2 whole entry, species assumed): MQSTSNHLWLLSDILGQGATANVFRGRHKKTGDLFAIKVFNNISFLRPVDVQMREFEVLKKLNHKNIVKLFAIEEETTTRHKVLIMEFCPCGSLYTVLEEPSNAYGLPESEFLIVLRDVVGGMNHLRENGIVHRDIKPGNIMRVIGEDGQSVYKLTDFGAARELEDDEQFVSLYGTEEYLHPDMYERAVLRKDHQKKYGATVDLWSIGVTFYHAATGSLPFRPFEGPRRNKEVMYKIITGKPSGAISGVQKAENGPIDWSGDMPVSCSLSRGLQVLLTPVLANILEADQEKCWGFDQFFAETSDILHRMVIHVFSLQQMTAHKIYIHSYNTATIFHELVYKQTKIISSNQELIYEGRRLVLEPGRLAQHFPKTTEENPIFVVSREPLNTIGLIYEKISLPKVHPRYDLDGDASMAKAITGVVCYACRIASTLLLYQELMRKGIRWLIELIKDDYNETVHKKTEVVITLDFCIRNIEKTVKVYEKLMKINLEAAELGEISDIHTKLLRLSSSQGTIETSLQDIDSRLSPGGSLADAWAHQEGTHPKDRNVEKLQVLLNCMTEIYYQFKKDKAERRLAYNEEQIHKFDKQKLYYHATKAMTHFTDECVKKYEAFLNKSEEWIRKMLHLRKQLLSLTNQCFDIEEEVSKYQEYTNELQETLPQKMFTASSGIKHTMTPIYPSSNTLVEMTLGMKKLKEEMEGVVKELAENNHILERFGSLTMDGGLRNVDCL
pIC50: −log10 of the molar value. Structures can show the parent of a compound that is named as a salt.

molecule	pIC50
COc1cc(C(=O)N(C)C)ncc1-c1cc2nccc(-c3ccc(OC4CCN(C)C4)c(C#N)c3)c2o1 (centres unmarked)	6.00 to 7.00

Prompt: Form field: reported pIC50 of `COc1cc(-c2cc3nccc(-c4ccc(OC5CCOCC5)c(C#N)c4)c3o2)cnc1C(=O)N(C)C`
Response: 6.00 to 7.00

Prompt: // query: `COc1cc(C(=O)N2CC(N3CCOCC3)C2)ccc1-c1cc2nccc(-c3ccc(OC4CCOCC4)c(C#N)c3)c2o1`
Response: > 7.00

Prompt: // query: COc1cc(C(=O)N(C)C)cnc1-c1cc2nccc(-c3ccc(OC4CCNCC4(F)F)c(C#N)c3)c2o1 (centres unmarked)
Response: > 7.00

Prompt: // query: CN(C)C(=O)c1ccc(-c2cc3nccc(-c4ccc(OC5CCNCC5)c(C#N)c4)c3o2)cc1 [Compound 185, hydrochloride]
Response: 5.30 to 6.00

Prompt: // query: COc1cc(C(=O)N(C)CCO)cnc1-c1cc2ncc(F)c(-c3ccc(OC4CCOCC4)c(C#N)n3)c2o1 [Compound 354, hydrochloride]
Response: 6.00 to 7.00

Prompt: // query: `COc1cc(C(=O)N(C)C)ncc1-c1cc2nccc(-c3cc(C#N)c(OC4CCOCC4)cn3)c2o1`
Response: 6.00 to 7.00

Prompt: // query: COc1cc(C(=O)NC2CN3CCC2CC3)ncc1-c1cc2nccc(-c3ccc(N4CCC(F)C4)c(C#N)c3)c2o1 (centres unmarked)
Response: > 7.00

Prompt: // query: CN(C)C(=O)c1ccc(-c2cc3nccc(-c4ccc(N5CC[C@H](F)C5)c(C#N)c4)c3o2)nc1 (single isomer, unassigned) [Compound 272, hydrochloride]
Response: > 7.00

Prompt: // query: `CN(C)C(=O)c1ccc(-c2cc3ncc(C4CC4)c(-c4ccc(OC5CCOCC5)c(C#N)c4)c3o2)c(F)c1`
Response: < 5.30

Prompt: // query: `COc1cc(C(=O)NC(C)(C)CCN(C)C)ccc1-c1cc2nccc(-c3ccc(OC4CCOCC4)c(C#N)c3)c2o1`
Response: > 7.00

Prompt: // query: `COc1cc(C(=O)N(C)C)cnc1-c1cc2ncc(C(C)C)c(-c3ccc(NC4CCOCC4)c(C#N)n3)c2o1`
Response: < 5.30

Prompt: // query: COc1cc(C(=O)NC2C3COCC32)ccc1-c1cc2nccc(-c3ccc(OC4CCOCC4)c(C#N)c3)c2o1 (centres unmarked)
Response: > 7.00

Prompt: // query: `N#Cc1cc(-c2ccnc3cc(-c4ccc(C(=O)N5CCN(C6CC6)CC5)cc4)oc23)ccc1OC1CCOCC1`
Response: > 7.00
